System: HEK293T-Rex XBP1-RLuc
EXPERIMENTAL_PROTOCOL: XBP1-RLuc splicing reporter activation, triplicate, relative to 500 nM thapsigargin (% of thapsigargin); higher = stronger IRE1/XBP1s reporter activation
CONDITION_PARAMETERS: 6.8 µM; 18 h; screen: confirmation

COMPOUND	XBP1-RLuc splicing reporter activation
CCOc1ccc(/C=C(\C#N)c2[nH]nc(N)c2C#N)cc1OCC	7.63
CCCCCOc1ccc(N/C(N)=N/c2nc(C)cc(C)n2)cc1	159
Nc1nc(Nc2ccc(Cl)cc2)nc2ccccc12	8.65
COc1ccccc1-c1cc(C(=O)Nc2cc(C)ccc2O)no1	7.78

---

System: HEK293T-Rex ERSE-FLuc
EXPERIMENTAL_PROTOCOL: ERSE-FLuc reporter activation, triplicate confirmation, relative to 500 nM thapsigargin (% of thapsigargin); higher = stronger ATF6/ERSE reporter activation
CONDITION_PARAMETERS: 6.8 µM; 18 h; screen: confirmation
Reported ERSE-FLuc reporter activation values for a set of compounds

COMPOUND	ERSE-FLuc reporter activation
COc1cccc(C2=NOC(C(=O)Nc3cc(C)ccc3O)C2)c1 (centres undefined)	30.3
COc1ccc(CCNC(=O)c2cccc(-c3ccc(N4CCOCC4)nc3)c2)cc1	48.7
CC(=O)Oc1cc(N2CCOCC2)c(OC(C)=O)c2c1C(=O)c1ccccc1C2=O	45
CCCNC(=O)c1cc(-c2cccs2)on1	51.5
O=[N+]([O-])c1ccccc1N/N=C/c1ccc(O)c(O)c1	43.3
CCCCCOc1ccc(N/C(N)=N/c2nc(C)cc(C)n2)cc1	110
O=C(Nc1ccccc1O)c1ccc(NS(=O)(=O)c2cccc3cccnc23)cc1	25.6
CN(C)c1ccc(/C=C(/C#N)C(=O)Nc2ccc(O)cc2)cc1	33.3
CCCNC(=O)c1cc(-c2ccc(F)cc2)on1	42
Oc1ccccc1/C=N\Nc1nc2ccccc2o1	26.6
N#CC1=C(N)Oc2c(ccc3ccccc23)C1c1ccsc1 (centres undefined)	25.8
Cc1ccc(O)c(-c2cc(C(F)(F)C(F)F)no2)c1	37.1
O=C1N/C(=C/c2ccc(O)cc2)C(=O)N1c1ccccc1	66.4
O=C1/C(=C/c2ccc(O)c(O)c2)SC(=S)N1c1ccc(O)cc1	30.5
N#C/C(=C/c1ccc(O)c(O)c1)c1nc2ccccc2[nH]1	29.7
Cc1ccc(O)c(NC(=O)CN(C)S(=O)(=O)c2ccc(Cl)cc2)c1	29.8
CC(=O)c1cccc(Nc2nc(-c3ccc(O)c(O)c3)cs2)c1	31.6
CCOc1ccc(NC(=O)c2ccc3c(c2)OCO3)c([N+](=O)[O-])c1	30.1
O=C(Nc1ccc(O)cc1)c1ccc2ccccc2c1	28.3
NC(=O)c1c(NC(=O)c2cccc3ccccc23)sc2c1CCC2	32
NC(=O)c1c(NC(=O)COc2ccccc2)sc2c1CCC2	27.1
O=C(/C=C/c1ccccc1)Nc1ccc(Cl)cn1	27.9
C=CCNC(=O)c1cc(-c2ccc(F)cc2)on1	25.1
O=C(COC(=O)c1ccc(O)c(O)c1)Nc1nc(-c2ccccc2)cs1	39.3

---

Tested on: HEK293T-Rex ERSE-FLuc
EXPERIMENTAL_PROTOCOL: ERSE-FLuc reporter activation, triplicate confirmation, relative to 500 nM thapsigargin (% of thapsigargin); higher = stronger ATF6/ERSE reporter activation
CONDITION_PARAMETERS: 6.8 µM; 18 h; screen: confirmation
Recorded measurements of ERSE-FLuc reporter activation, one per entry
MEASUREMENT_TYPE: ERSE-FLuc reporter activation

MOLECULE	MEASURED_ON	RESULT_NUMBER
COc1ccc(NC(=O)/C(Cl)=C\c2ccccc2)cc1	HEK293T-Rex ERSE-FLuc	28.6
COc1ccc(/C(C)=N/OC/C(O)=C(\C#N)c2nc3ccccc3[nH]2)cc1OC	HEK293T-Rex ERSE-FLuc	31.3
O=C(NCCc1ccccc1)c1cc(-c2cccs2)on1	HEK293T-Rex ERSE-FLuc	34.5
Cc1ccc(O)c(NC(=O)c2cc(-c3ccco3)on2)c1	HEK293T-Rex ERSE-FLuc	74.4
Oc1ccc(/C=N/Nc2cccc(Cl)n2)c(O)c1	HEK293T-Rex ERSE-FLuc	31
O=C1NC(=Nc2ccc(F)cc2)S/C1=C\c1ccc(O)c(O)c1	HEK293T-Rex ERSE-FLuc	32.4
Nc1ccc2sc(-c3cc(Cl)c(N)c(Cl)c3)nc2c1	HEK293T-Rex ERSE-FLuc	30.8
N#Cc1c(NC(=O)/C=C/c2ccco2)sc2c1CCCC2	HEK293T-Rex ERSE-FLuc	29.4
O=C(CCCCCCC(=O)Nc1ccccc1)NO	HEK293T-Rex ERSE-FLuc	59.2
CN(C)c1ccc(C2C(C#N)=C(N)Oc3c2sc2ccccc32)cc1[N+](=O)[O-] (configuration not stated)	HEK293T-Rex ERSE-FLuc	26
CCOc1cccc(/C=C2\NC(=S)N(C)C2=O)c1O	HEK293T-Rex ERSE-FLuc	26.2
O=C1/C(=C/c2ccc(O)c(O)c2)Oc2cc(O)ccc21	HEK293T-Rex ERSE-FLuc	26.9
COc1cccc(/C=N/NC(=O)c2n[nH]c3c2CCCC3)c1	HEK293T-Rex ERSE-FLuc	31.5
OCCNc1nc(Nc2ccc(Cl)cc2)nc2ccccc12	HEK293T-Rex ERSE-FLuc	67.9
O=C(N/N=C\c1ccccc1[N+](=O)[O-])c1[nH]nc2c1CCc1ccccc1-2	HEK293T-Rex ERSE-FLuc	31.4
COc1ccccc1/C=N/Nc1nc(-c2ccccc2)cc(=O)[nH]1	HEK293T-Rex ERSE-FLuc	25.2
CCCCCCc1ccc(-c2ncc(N)cn2)cc1	HEK293T-Rex ERSE-FLuc	33.2
COc1ccc(-n2nnnc2SCC(N)=O)c(OC)c1	HEK293T-Rex ERSE-FLuc	34.5
COC(=O)c1c(NC(=O)CCl)sc(C(=O)Nc2cccc([N+](=O)[O-])c2)c1C	HEK293T-Rex ERSE-FLuc	37.6
Nc1nc(Nc2ccc(Cl)c(Cl)c2)nc2ccccc12	HEK293T-Rex ERSE-FLuc	43.5
O=c1[nH]c(COc2ccccc2)nc2sc3c(c12)CCCC3	HEK293T-Rex ERSE-FLuc	39
O=c1[nH]c(/C=C2\C=Nc3ccccc32)c(O)n1-c1ccc(Cl)cc1	HEK293T-Rex ERSE-FLuc	41.4
COc1ccc(-c2nn(-c3ccccc3)cc2/C=C/C(=O)O)cc1[N+](=O)[O-]	HEK293T-Rex ERSE-FLuc	31.7
Cc1cc(C)nc(/N=C(\N)Nc2ccc(OCc3ccc(Cl)cc3)cc2)n1	HEK293T-Rex ERSE-FLuc	59.7
Cc1ccc(O)c(-c2cc(-c3ccc(F)cc3)n[nH]2)c1	HEK293T-Rex ERSE-FLuc	25.5
CC(=Nc1ccc(O)cc1)c1sc2ccccc2c1O	HEK293T-Rex ERSE-FLuc	27.4
COc1ccc2oc(=Nc3cc(F)ccc3F)c(C(N)=O)cc2c1	HEK293T-Rex ERSE-FLuc	25.3
CN(c1ccccc1)S(=O)(=O)c1cccc(C(=O)NCCc2ccc(O)c(O)c2)c1	HEK293T-Rex ERSE-FLuc	44.7
COc1ccc(-c2cc(C(=O)Nc3cc(C)ccc3O)on2)cc1OC	HEK293T-Rex ERSE-FLuc	33.8
Oc1ccc(/C=N/Nc2cccc3cccnc23)c(O)c1	HEK293T-Rex ERSE-FLuc	40.8
Cc1cc(C)nc(Nc2nc(-c3ccc(O)c(O)c3)cs2)n1	HEK293T-Rex ERSE-FLuc	47.4
COCCNC(=O)c1cc(-c2cccs2)on1	HEK293T-Rex ERSE-FLuc	27.4
C(=N/Nc1nnc2c(n1)[nH]c1ccccc12)/c1c[nH]c2ccccc12	HEK293T-Rex ERSE-FLuc	29.6
O=C1c2cc(O)ccc2-c2ccc(O)cc21	HEK293T-Rex ERSE-FLuc	25.6
O=C(Nc1ccccc1O)c1cc2ccccc2o1	HEK293T-Rex ERSE-FLuc	33
O=C(N/N=C/c1ccc(O)c(O)c1)c1cccc(Cl)c1	HEK293T-Rex ERSE-FLuc	32.8
CCc1nc2sc(C(=O)c3ccccc3)c(N)c2cc1C	HEK293T-Rex ERSE-FLuc	26.2
C=CCNC(=O)c1cc(-c2ccccc2)on1	HEK293T-Rex ERSE-FLuc	43.4
Cc1ccc(O)c(NC(=O)c2cc(C3CC3)on2)c1	HEK293T-Rex ERSE-FLuc	59.4
COc1ccccc1/C=C/C(=O)Nc1ccc(Cl)cn1	HEK293T-Rex ERSE-FLuc	27.9
Cn1c(-c2cccc(Cl)c2)cnc1NC(=O)c1ccccc1	HEK293T-Rex ERSE-FLuc	25.6
COc1ccc(-c2cnnc(N/N=C/c3ccc(O)c(O)c3)n2)cc1	HEK293T-Rex ERSE-FLuc	35.9
Oc1ccc(/C=N/Nc2cccc3cccnc23)cc1O	HEK293T-Rex ERSE-FLuc	33.1
NN1C(=O)/C(=C/c2ccc(O)c(O)c2)SC1=S	HEK293T-Rex ERSE-FLuc	38.3
CN1C(=O)/C(=C\c2ccc(O)c(O)c2)SC1=S	HEK293T-Rex ERSE-FLuc	25.2
N#C/C(=C(/O)c1cc(-c2ccccc2)nc2ccccc12)c1nc2ccccc2[nH]1	HEK293T-Rex ERSE-FLuc	31.1
CNC(=O)c1ccccc1Nc1cc(NC(=O)Cc2ccc(F)c(F)c2)ncc1C(F)(F)F	HEK293T-Rex ERSE-FLuc	54.6
